biological target: FGFR kinase domain (Homo sapiens, UniProt P11362, C488A/C584S); construct: FGFR kinase domain (amino acids 458-765, C488A, C584S) N-terminally fused to a His6-tag; made in house; assay: Kinase assay (ELISA) for inhibition of FGFR activity; type: biochemical; settings: comparative testing; read-out: Fgf Ic50
Sequence (P11362 458-765 C488A/C584S): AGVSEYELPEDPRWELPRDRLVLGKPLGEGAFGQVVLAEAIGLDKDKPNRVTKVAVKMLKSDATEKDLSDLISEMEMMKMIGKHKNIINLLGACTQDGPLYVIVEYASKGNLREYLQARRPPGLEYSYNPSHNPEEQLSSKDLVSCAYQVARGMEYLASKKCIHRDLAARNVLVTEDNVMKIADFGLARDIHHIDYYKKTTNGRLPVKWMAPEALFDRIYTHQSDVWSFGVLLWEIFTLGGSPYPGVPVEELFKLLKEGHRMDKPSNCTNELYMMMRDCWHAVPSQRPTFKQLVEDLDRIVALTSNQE
ASSAY ENDPOINT: pIC50
Scale for pIC50: -log10 of concentration given in mol/L; no unit attached.

[[record]]
chemical_smiles = "Cc1cc(Nc2nc(NCc3cc(C)no3)ncc2Br)[nH]n1"
assay_endpoint = "pIC50"
val = 6.85

[[record]]
chemical_smiles = "Cc1cc(CNc2nccc(Nc3cc(C4CC4)[nH]n3)n2)on1"
assay_endpoint = "pIC50"
val = 7.40


Given CCCc1cc(Nc2nc(NCc3cc(C)no3)ncc2Br)n[nH]1 , report its pIC50 on FGFR kinase domain (Homo sapiens, UniProt P11362, C488A/C584S).
7.05
